# Target desc: T1, human PD-L1 expressed on mammalian cells (human, UniProt Q9NZQ7 19-290)
# T1 construct: whole, on cells; also called PDL1-CHOK1 cells; PDL1-Raji cells
# T1 sequence (Q9NZQ7 19-290): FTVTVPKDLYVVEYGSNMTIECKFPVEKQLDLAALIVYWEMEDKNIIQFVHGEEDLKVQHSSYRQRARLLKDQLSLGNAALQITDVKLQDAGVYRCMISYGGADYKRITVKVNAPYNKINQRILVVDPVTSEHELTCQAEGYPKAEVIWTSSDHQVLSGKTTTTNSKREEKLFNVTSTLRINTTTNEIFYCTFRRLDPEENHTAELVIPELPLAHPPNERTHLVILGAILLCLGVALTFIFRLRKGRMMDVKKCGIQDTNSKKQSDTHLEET
# Run description: flow cytometry (MFI) on PDL1-CHOK1 cells; EC50 table has no unit, x axis Antibodies(nM)
Measured property: EC50 (nM)
Supply the numeric figure in nM, leaving out any unit text.

Consider the following illustrative entries.
- Binder: "Hu1210-18 (antibody, V domains shown, Hu1210 VH.3 x Vk.1a; human gamma 1 / kappa constant domains) VH: EVQLLESGGGLVQPGGSLRLSCAASGFTFSSYDMSWVRQAPGKGLEWVSTISDGGGYIYYSDSVKGRFTISRDNSKNTLYLQMNSLRAEDTAVYYCAREFGKRYALDYWGQGTTVTVSS VL: DIQMTQSPSSLSASVGDRVTITCKASQDVTPAVAWYQQKPGKSPKLLIYSTSSRYTGVPSRFSGSGSGTDFTFTISSLQPEDIATYYCQQHYTTPLTFGQGTKLEIK"
  Measure unit: "nM"
  Measured: 1.8
- Binder: "H1210 chimera (antibody, V domains shown, also called chimeric antibody) VH: EVKLVESGGDLVKPGGSLKLSCAASGFTFSSYDMSWVRQTPEKSLEWVATISDGGGYIYYSDSVKGRFTISRDNAKNNLYLQMSSLRSEDTALYICAREFGKRYALDYWGQGTSVTVSS VL: DIVMTQSHKFMSTSVGDRVSISCKASQDVTPAVAWYQQKPGQSPKLLIYSTSSRYTGVPDRFTGSGSGTDFTFTISSVQAEDLAVYYCQQHYTTPLTFGAGTKLELK"
  Measure unit: "nM"
  Measured: 0.95
- Binder: "Hu1210-22 (antibody, V domains shown, Hu1210 VH.4b x Vk.1a; human gamma 1 / kappa constant domains) VH: EVQLVESGGGLVQPGGSLRLSCAASGFTFSSYDMSWVRQAPGKSLEWVATISDGGGYIYYSDSVKGRFTISRDNAKNSLYLQMNSLRDEDTAVYICAREFGKRYALDYWGQGTTVTVSS VL: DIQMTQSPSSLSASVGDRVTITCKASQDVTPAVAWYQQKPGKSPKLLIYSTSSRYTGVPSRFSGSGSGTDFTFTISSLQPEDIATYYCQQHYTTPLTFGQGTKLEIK"
  Measure unit: "nM"
  Measured: 1.17

Prompt line: For the binder shown here, Hu1210-20 (antibody, V domains shown, Hu1210 VH.4 x Vk.1a; human gamma 1 / kappa constant domains) VH: EVQLVESGGGLVQPGGSLRLSCAASGFTFSSYDMSWVRQAPGKGLEWVSTISDGGGYIYYSDSVKGRFTISRDNAKNSLYLQMNSLRDEDTAVYYCAREFGKRYALDYWGQGTTVTVSS VL: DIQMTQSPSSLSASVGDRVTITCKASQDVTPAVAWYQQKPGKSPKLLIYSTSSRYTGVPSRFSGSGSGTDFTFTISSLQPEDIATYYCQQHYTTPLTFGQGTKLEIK , give the reported EC50.
Response line: 1.73

Prompt line: Reported EC50 for Hu1210-17 (antibody, V domains shown, Hu1210 VH.4b x Vk.1; human gamma 1 / kappa constant domains) VH: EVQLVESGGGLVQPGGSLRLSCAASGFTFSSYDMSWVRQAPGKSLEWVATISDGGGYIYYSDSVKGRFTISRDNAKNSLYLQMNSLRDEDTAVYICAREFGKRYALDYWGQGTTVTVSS VL: DIQMTQSPSSLSASVGDRVTITCKASQDVTPAVAWYQQKPGKAPKLLIYSTSSRYTGVPSRFSGSGSGTDFTFTISSLQPEDIATYYCQQHYTTPLTFGQGTKLEIK : what is it?
Response line: 1.23

Prompt line: # get_value(readout='EC50', item= Hu1210-21 (antibody, V domains shown, Hu1210 VH.4a x Vk.1a; human gamma 1 / kappa constant domains) VH: EVQLVESGGGLVQPGGSLRLSCAASGFTFSSYDMSWVRQAPGKGLEWVATISDGGGYIYYSDSVKGRFTISRDNAKNSLYLQMNSLRDEDTAVYYCAREFGKRYALDYWGQGTTVTVSS VL: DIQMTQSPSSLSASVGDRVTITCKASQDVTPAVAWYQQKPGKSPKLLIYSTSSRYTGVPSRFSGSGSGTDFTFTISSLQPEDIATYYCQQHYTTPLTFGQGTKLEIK )
Response line: 1.29

Prompt line: For Hu1210-19 (antibody, V domains shown, Hu1210 VH.3a x Vk.1a; human gamma 1 / kappa constant domains) VH: EVQLLESGGGLVQPGGSLRLSCAASGFTFSSYDMSWVRQAPGKSLEWVATISDGGGYIYYSDSVKGRFTISRDNSKNTLYLQMNSLRAEDTAVYICAREFGKRYALDYWGQGTTVTVSS VL: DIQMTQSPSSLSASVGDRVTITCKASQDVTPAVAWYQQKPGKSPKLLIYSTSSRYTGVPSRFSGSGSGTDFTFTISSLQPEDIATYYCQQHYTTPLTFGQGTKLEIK , what is its reported EC50?
Response line: 1.01
